# credit: patent US20080090805A1

subject-of-test: CB1 (mutant) (Homo sapiens)
measurement-description: R-SAT functional receptor assay, CB1 (mutant, truncated after amino acid 417)
Assay type: cell-based
particulars: Appendix A; R-SAT CB1; receptor form (mutant or wild-type) not stated; read-out: pIC50 (converted)

# compound, units-of-measure, IC50
data = [
    ("CC(C)CNC(=O)c1ccc2c(c1)N=C(c1ccsc1)c1ccccc1S2 [drawing 581]", "nM", 3.16),
    ("CCCCC(=O)c1ccc2c(c1)N=C(C1CCCCC1)c1ccccc1S2", "nM", 50.1),
    ("O=C(NC1CCCCC1)c1ccc2c(c1)N=C(c1cccc(Cl)c1)c1ccccc1S2 [drawing 843]", "nM", 12.6),
    ("Cc1ccc(CNC(=O)c2ccc3c(c2)N=C(c2ccc(F)cc2)c2ccccc2S3)o1 [drawing 577]", "nM", 3.16),
    ("O=C(NCc1cccc(Cl)c1)c1ccc2c(c1)N=C(c1ccccc1F)c1ccccc1S2 [drawing 1083]", "nM", 31.6),
    ("CON(C)C(=O)c1ccc2c(c1)N=C(c1ccc(Cl)cc1F)c1ccccc1S2", "nM", 1580),
    ("O=C(NC1CCCC1)c1ccc2c(c1)N=C(c1cccc(Cl)c1)c1ccccc1S2 [drawing 702]", "nM", 79.4),
    ("O=C(NCCCC(F)(F)F)c1ccc2c(c1)N=C(c1ccsc1)c1ccccc1S2 [drawing 555]", "nM", 2),
    ("CCCC1=Nc2cc(C(=O)NC(C)c3ccccc3)ccc2Sc2ccccc21 (stereo not drawn)", "nM", 63.1),
]

====

subject-of-test: native CB1 receptors (Rattus norvegicus, UniProt P20272)
Sequence (P20272 whole entry): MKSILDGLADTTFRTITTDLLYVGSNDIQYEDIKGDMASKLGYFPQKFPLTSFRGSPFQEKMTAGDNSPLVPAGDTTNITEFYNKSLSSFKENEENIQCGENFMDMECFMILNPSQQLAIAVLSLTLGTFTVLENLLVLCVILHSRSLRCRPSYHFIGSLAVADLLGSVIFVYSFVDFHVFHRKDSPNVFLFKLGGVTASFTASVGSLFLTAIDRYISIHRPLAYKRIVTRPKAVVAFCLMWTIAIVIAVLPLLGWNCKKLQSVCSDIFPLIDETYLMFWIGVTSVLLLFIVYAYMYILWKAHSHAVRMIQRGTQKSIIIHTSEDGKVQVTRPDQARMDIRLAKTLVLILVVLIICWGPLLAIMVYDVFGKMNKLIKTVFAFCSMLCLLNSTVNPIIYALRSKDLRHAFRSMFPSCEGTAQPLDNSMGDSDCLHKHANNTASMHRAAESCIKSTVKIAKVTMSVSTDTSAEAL
measurement-description: CB1 receptor rat binding assay ([3H]SR141716A, rat brain membranes)
particulars: rat brain membranes, [3H]SR141716A
Binding rat Inh % for assorted compounds

# compound, Binding rat Inh %
measured = [
    ("O=C(NCc1ccco1)c1ccc2c(c1)N=C(c1ccc(Cl)c(Cl)c1)c1ccccc1S2 [drawing 1402]", "84%"),
    ("CCCNC(=O)c1ccc2c(c1)N=C(c1ccc(Br)cc1)c1ccccc1S2 [drawing 1259]", "65%"),
    ("C[C@@H]1CCC[C@H](C)N1NC(=O)c1ccc2c(c1)N=C(c1ccc(F)cc1)c1ccccc1S2 [drawing 1356]", "108%"),
    ("C[C@@H]1CCC[C@H](C)N1NC(=O)c1ccc2c(c1)N=C(c1ccc(Cl)cc1F)c1ccccc1S2 [drawing 1474]", "71%"),
]

====

Entries and their Emax
subject-of-test: CB1 (mutant) (Homo sapiens)
measurement-description: R-SAT functional receptor assay, CB1 (mutant, truncated after amino acid 417)
Type: cell-based
particulars: Appendix A; R-SAT CB1; receptor form not stated; relative to SR141716 (100%); read-out: % Inhibition

# compound, units-of-measure, Emax
records = [
    ("O=C(NCc1ccccn1)c1ccc2c(c1)N=C(c1cccc(Br)c1)c1ccccc1S2 [drawing 891]", "%", 85),
    ("O=C(NCc1ccccc1)c1ccc2c(c1)N=C(c1ccc(Cl)cc1)c1ccccc1S2 [drawing 647]", "%", 105),
    ("COCCNC(=O)c1ccc2c(c1)N=C(c1cccc(F)c1)c1ccccc1S2 [drawing 1025]", "%", 115),
    ("O=C(NC1CCC(F)(F)CC1)c1ccc2c(c1)N=C(c1ccccn1)c1ccccc1S2 [drawing 564]", "%", 79),
    ("O=C(NCc1cccnc1)c1ccc2c(c1)N=C(c1ccc(F)cc1)c1ccccc1S2 [drawing 931]", "%", 123),
    ("CCCCNC(=O)c1ccc2c(c1)N=C(c1ccc(Cl)c(F)c1)c1ccccc1S2 [drawing 769]", "%", 106),
    ("Cc1cnc(-c2ccc3c(c2)N=C(c2ccc(Cl)cc2)c2ccccc2S3)[nH]1 [drawing 872]", "%", 88),
    ("CCCCC1=Nc2cc(C(=O)NC3CCN(C(=O)OCC)CC3)ccc2Sc2ccccc21", "%", 96),
]

====

subject-of-test: CB1 (mutant) (Homo sapiens)
measurement-description: R-SAT functional receptor assay, CB1 (mutant, truncated after amino acid 417)
Format: cell-based
particulars: Appendix A; R-SAT CB1; receptor form (mutant or wild-type) not stated
pIC50 reference
measurement-label: pIC50

# compound, value
rows = [
    ("O=C(NCc1cccs1)c1ccc2c(c1)N=C(c1cccc(F)c1)c1ccccc1S2 [drawing 593]", 8.5),
    ("CC(C)CNC(=O)c1ccc2c(c1)N=C(c1ccc(Cl)s1)c1ccccc1S2 [drawing 551]", 8.7),
    ("CON(C)C(=O)c1ccc2c(c1)N=C(c1ccc(Cl)cc1Cl)c1ccccc1S2", 1.0),
    ("CCONC(=O)c1ccc2c(c1)N=C(c1ccccn1)c1ccccc1S2", 1.0),
    ("O=C(NCc1cccc(Cl)c1)c1ccc2c(c1)N=C(c1ccc(F)cc1)c1ccccc1S2 [drawing 747]", 8.1),
    ("CONC(=O)c1ccc2c(c1)N=C(c1ccc(Cl)cc1Cl)c1ccccc1S2", 1.0),
    ("CCONC(=O)c1ccc2c(c1)N=C(c1ccccc1Cl)c1ccccc1S2", 1.0),
    ("CON(C)C(=O)c1ccc2c(c1)N=C(c1ncccc1C)c1ccccc1S2", 1.0),
]

====

subject-of-test: CB1 (mutant) (Homo sapiens)
measurement-description: R-SAT functional receptor assay, CB1 (mutant, truncated after amino acid 417)
Format: cell-based
particulars: Appendix A; R-SAT CB1; receptor form not stated; relative to SR141716 (100%); read-out: % Inhibition
// reported Emax per item

# compound, subject-of-test, Emax / %
data = [
    ("CCCC1=Nc2cc(C(=O)NCc3ccc4c(c3)OCO4)ccc2Sc2ccc(C)cc21", "CB1 (mutant) (Homo sapiens)", 77),
    ("CCCCN(C)C(=O)c1ccc2c(c1)N=C(c1sccc1C)c1ccccc1S2", "CB1 (mutant) (Homo sapiens)", 72),
    ("CC(C)CNC(=O)c1ccc2c(c1)N=C(c1ccc(F)cn1)c1ccccc1S2 [drawing 711]", "CB1 (mutant) (Homo sapiens)", 113),
    ("CC(C)CNC(=O)c1ccc2c(c1)N=C(c1ccc(Cl)c(Cl)c1)c1ccccc1S2 [drawing 643]", "CB1 (mutant) (Homo sapiens)", 108),
    ("CCCCCC1=Nc2cc(C(=O)NN3CCCCC3)ccc2Sc2ccccc21", "CB1 (mutant) (Homo sapiens)", 100),
    ("O=C(NCc1ccco1)c1ccc2c(c1)N=C(c1ccc(F)cc1)c1ccccc1S2 [drawing 689]", "CB1 (mutant) (Homo sapiens)", 104),
    ("CCCC1=Nc2cc(C(=O)N3CCN(Cc4ccc5c(c4)OCO5)CC3)ccc2Sc2ccccc21", "CB1 (mutant) (Homo sapiens)", 96),
    ("CCCCC1=Nc2cc(C(=O)N3CCN(c4ccc(C)cc4C)CC3)ccc2Sc2ccccc21", "CB1 (mutant) (Homo sapiens)", 104),
    ("CC(C)CNC(=O)c1ccc2c(c1)N=C(c1ccc(Br)cc1)c1ccccc1S2 [drawing 781]", "CB1 (mutant) (Homo sapiens)", 80),
]

====

subject-of-test: CB1 (mutant) (Homo sapiens, UniProt P21554)
Sequence (P21554 1-417, change not shown): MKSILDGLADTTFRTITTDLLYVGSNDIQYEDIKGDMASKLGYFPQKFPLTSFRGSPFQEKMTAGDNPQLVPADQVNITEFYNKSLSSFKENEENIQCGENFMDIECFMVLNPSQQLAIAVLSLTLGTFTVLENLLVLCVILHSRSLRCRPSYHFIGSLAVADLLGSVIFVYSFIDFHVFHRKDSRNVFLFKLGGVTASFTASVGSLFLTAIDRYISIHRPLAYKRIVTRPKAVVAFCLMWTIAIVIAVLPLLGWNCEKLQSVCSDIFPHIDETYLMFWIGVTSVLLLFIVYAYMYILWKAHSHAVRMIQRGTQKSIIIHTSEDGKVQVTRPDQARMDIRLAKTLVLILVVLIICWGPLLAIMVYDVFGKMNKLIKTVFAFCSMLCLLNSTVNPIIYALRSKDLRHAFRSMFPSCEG
measurement-description: R-SAT functional receptor assay, CB1 (mutant, truncated after amino acid 417)
Assay type: cell-based
particulars: Appendix A; R-SAT CB1; receptor form (mutant or wild-type) not stated; read-out: pIC50 (converted)
measurement-label: log10 of IC50 (log10 of the value in nM)

# compound, subject-of-test, value
measured = [
    ("O=C(NCc1cccs1)c1ccc2c(c1)N=C(c1cccc(Cl)c1)c1ccccc1S2 [drawing 573]", "CB1 (mutant) (Homo sapiens, UniProt P21554)", 0.40),
    ("O=C(NN1CCCCCC1)c1ccc2c(c1)N=C(c1ccc(Cl)cc1)c1ccccc1S2 [drawing 624]", "CB1 (mutant) (Homo sapiens, UniProt P21554)", 1.80),
    ("O=C(Cc1ccccc1)NNC(=O)c1ccc2c(c1)N=C(N1CCCCC1)c1ccccc1S2", "CB1 (mutant) (Homo sapiens, UniProt P21554)", 2.30),
    ("CCCC1=Nc2cc(C(=O)N3CCc4ccccc4C3)ccc2Sc2ccccc21", "CB1 (mutant) (Homo sapiens, UniProt P21554)", 2.80),
    ("O=C(NCCc1cccnc1)c1ccc2c(c1)N=C(c1ccc(F)cc1)c1ccccc1S2 [drawing 1033]", "CB1 (mutant) (Homo sapiens, UniProt P21554)", 1.40),
    ("Cc1ccc(CNC(=O)c2ccc3c(c2)N=C(c2ccc(Cl)cc2F)c2ccccc2S3)o1 [drawing 1039]", "CB1 (mutant) (Homo sapiens, UniProt P21554)", 1.50),
    ("O=C(NC1CCCCC1)c1ccc2c(c1)N=C(c1ccccc1Cl)c1ccccc1S2", "CB1 (mutant) (Homo sapiens, UniProt P21554)", 2.40),
    ("O=C(NCCCC(F)(F)F)c1ccc2c(c1)N=C(c1cccc(F)c1)c1ccccc1S2 [drawing 547]", "CB1 (mutant) (Homo sapiens, UniProt P21554)", 0.00),
    ("O=C(NN1CCCCC1)c1ccc2c(c1)N=C(c1ccc(Br)cc1)c1ccccc1S2 [drawing 993]", "CB1 (mutant) (Homo sapiens, UniProt P21554)", 1.40),
]
